- experiment: Plasma concentration in Sprague-Dawley rat at 10 mg/kg, po bid administered for 5 days measured 2 hrs post last dose
- Format: ADME, organism-based
- Parameters: dose 10 mg/kg, route oral
measured.metric: concentration at 2 h (nM)
Write the answer as a number in nM, unit excluded.

CC1(C)CC=C(c2cc(C(C)(C)N3CCN(CCO)CC3)ccc2NC(=O)c2nc(C#N)c[nH]2)CC1 yielded concentration at 2 h of 680

----------
Documented remaining at 10 min across a set of compounds
- experiment: Metabolic stability in mouse liver microsomes assessed as compound remaining after 10 mins
- Assay type: ADME, Microsome
- details: liver microsomes, read-out: Stability
Write the answer as a number in %, unit excluded.

Examples from the recorded data:
COCCN1CCN(C(C)(C)c2ccc(NC(=O)c3nc(C#N)c[nH]3)c(C3=CCC(C)(C)CC3)c2)CC1 yielded remaining at 10 min of 73

CC1(C)CC=C(c2cc(C(C)(C)NCCS(C)(=O)=O)ccc2NC(=O)c2nc(C#N)c[nH]2)CC1 yielded remaining at 10 min of 62

Others:
COCCNC(C)(C)c1ccc(NC(=O)c2nc(C#N)c[nH]2)c(C2=CCC(C)(C)CC2)c1 yielded remaining at 10 min of 50

----------
- study.target: Macrophage colony-stimulating factor 1 receptor (Mus musculus)
- Sequence (P09581 whole entry): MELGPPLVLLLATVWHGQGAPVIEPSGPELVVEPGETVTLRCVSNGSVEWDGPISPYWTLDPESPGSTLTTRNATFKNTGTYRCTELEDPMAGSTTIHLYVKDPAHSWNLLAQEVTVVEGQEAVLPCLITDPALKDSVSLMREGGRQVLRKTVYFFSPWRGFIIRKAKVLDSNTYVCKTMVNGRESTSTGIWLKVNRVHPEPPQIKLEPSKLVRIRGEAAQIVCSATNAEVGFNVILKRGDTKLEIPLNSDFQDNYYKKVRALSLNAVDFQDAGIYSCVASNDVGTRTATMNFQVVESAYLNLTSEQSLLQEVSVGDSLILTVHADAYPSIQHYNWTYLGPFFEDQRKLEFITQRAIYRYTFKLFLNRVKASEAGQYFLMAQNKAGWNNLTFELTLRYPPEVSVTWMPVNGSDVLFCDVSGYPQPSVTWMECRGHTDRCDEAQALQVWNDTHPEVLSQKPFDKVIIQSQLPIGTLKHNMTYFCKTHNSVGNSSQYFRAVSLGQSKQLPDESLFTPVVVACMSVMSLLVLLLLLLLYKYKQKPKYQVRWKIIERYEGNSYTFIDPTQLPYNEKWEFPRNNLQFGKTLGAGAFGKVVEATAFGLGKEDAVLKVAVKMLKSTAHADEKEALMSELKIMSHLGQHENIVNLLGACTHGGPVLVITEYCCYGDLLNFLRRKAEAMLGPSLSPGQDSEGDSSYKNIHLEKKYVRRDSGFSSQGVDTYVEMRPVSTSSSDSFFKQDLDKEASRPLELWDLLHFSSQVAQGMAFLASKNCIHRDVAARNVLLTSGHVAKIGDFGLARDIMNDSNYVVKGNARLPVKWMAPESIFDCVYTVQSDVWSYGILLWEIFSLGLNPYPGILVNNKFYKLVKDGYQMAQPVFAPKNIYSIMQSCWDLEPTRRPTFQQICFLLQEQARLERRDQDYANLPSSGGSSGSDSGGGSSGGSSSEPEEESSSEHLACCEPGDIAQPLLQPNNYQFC
- experiment: Inhibition of FMS in mouse BMDM cells
measured.metric: pIC50
pIC50 here: minus log base 10 of the concentration, concentration in moles per litre.

Examples from the recorded data:
CC1(C)CC=C(c2cc(S(C)(=O)=O)ccc2NC(=O)c2nc(C#N)c[nH]2)CC1 yielded pIC50 of 7.23

CC1(C)CC=C(c2cc(C(C)(C)CO)ccc2NC(=O)c2nc(C#N)c[nH]2)CC1 yielded pIC50 of 7.48

N#Cc1c[nH]c(C(=O)Nc2ccc(S(=O)(=O)N3CCOCC3)cc2C2=CCCCC2)n1 yielded pIC50 of 6.68

CN(CCS(C)(=O)=O)C(C)(C)c1ccc(NC(=O)c2nc(C#N)c[nH]2)c(C2=CCC(C)(C)CC2)c1 yielded pIC50 of 7.68

Others:
CN(C)C(=O)c1ccc(NC(=O)c2nc(C#N)c[nH]2)c(C2=CCC(C)(C)CC2)c1 yielded pIC50 of 6.89

N#Cc1c[nH]c(C(=O)Nc2ccc(CCS(N)(=O)=O)cc2C2=CCCCC2)n1 yielded pIC50 of 7.27

----------
- experiment: Metabolic stability in human liver microsomes assessed as compound remaining after 10 mins
- Assay type: ADME
- details: liver microsomes, read-out: Stability
Output fulfilled for records whose remaining at 10 min is lower than 40%, not fulfilled for records at or above 40%.

remaining at 10 min strictly < 40% for this molecule? CN(C)CCOC(C)(C)c1ccc(NC(=O)c2ncc(C#N)[nH]2)c(C2=CCC(C)(C)CC2)c1
not fulfilled

Others:
remaining at 10 min strictly < 40% for this molecule? CC1(C)CC=C(c2cc(C(C)(C)OCCN3CCOCC3)ccc2NC(=O)c2nc(C#N)c[nH]2)CC1
fulfilled

remaining at 10 min strictly < 40% for this molecule? N#Cc1cnc(C(=O)Nc2ccc(CN3CCOCC3)cc2C2=CCCCC2)[nH]1
not fulfilled

remaining at 10 min strictly < 40% for this molecule? CCN1CCN(C(C)(C)c2ccc(NC(=O)c3nc(C#N)c[nH]3)c(C3=CCC(C)(C)CC3)c2)CC1
not fulfilled

remaining at 10 min strictly < 40% for this molecule? N#Cc1cnc(C(=O)Nc2ccc(CCO)cc2C2=CCCCC2)[nH]1
fulfilled

FYI, the data here is from ChEMBL document CHEMBL3085648.
